# ASSAY_EXPLANATION: BET inhibitor-based combinations targeting novel dependencies in MECOM-rearranged (r) AML: HNT-34 cell line (AID 2202234); note: nearly all actives have a fitted effect of over 35% in size; note: potency is the fitted concentration of half-maximal effect
# EXPERIMENTAL_SETUP: HNT-34 AML viability, CellTiter-Glo luminescence, 48 h; series mostly up to 46 µM
Records with an inconclusive call do not appear. Active and inactive are the calls of the source. Calls come from the whole dose curve; as a rule, active = well fitted inhibition curve with a large enough effect; inconclusive = small, poorly fitted or top-dose-only effect; inactive = no such curve, though single readings can be large or run the other way. Non-standard residues stand in square brackets, D forms with d. Residues, ends and D or L forms follow the SMILES beside them.
OBSERVATION_TYPE: Potency

Here's what some known entries look like.
| MOLECULE | Potency |
| --- | --- |
| C[C@H]1[C@@H](OC(=O)CCC(=O)O)O[C@@H]2O[C@@]3(C)CC[C@@H]4[C@H](C)CC[C@@H]1[C@@]24OO3 | 2.95 µM (active) |
| O=C(c1ccc(/C=C/c2n[nH]c3ccccc23)cc1)N1CCNCC1 | 3.72 µM (active) |
| Cc1ccc2nc(NCCN)c3ncc(C)n3c2c1 | 8.33 µM (active) |
| Cc1ccc(NS(=O)(=O)c2ccc3c(c2)C2C=CCC2C(c2ccc(C(=O)O)cc2)N3)cc1C (configuration not stated) | inactive |

If you can, please state the reported Potency value of O=c1[nH]c(=O)n([C@H]2C[C@H](O)[C@@H](CO)O2)cc1F .
5.9 µM (active)

If you can, please state the reported Potency value of Nc1ccc(C(=O)c2cc3c(ccc4ccccc43)[nH]2)cc1 .
2.41 µM (active)

If you can, please state the reported Potency value of Cc1ccc(NC(=O)[C@H]2CCCN(C(=O)c3c(C)cccc3F)[C@H]2c2ccc(NC3CCCC3)cc2)cc1C(F)(F)F .
9.34 µM (active)

If you can, please state the reported Potency value of CONC(=O)Nc1ccc(-c2sc3c(c2CN(C)C)c(=O)n(-c2ccc(OC)nn2)c(=O)n3Cc2c(F)cccc2F)cc1 .
inactive

If you can, please state the reported Potency value of CCOc1ccc(-n2c([C@@H](C)N(Cc3cccnc3)C(=O)Cc3ccc(F)c(C(F)(F)F)c3)nc3ncccc3c2=O)cc1 .
inactive

If you can, please state the reported Potency value of CC(C)(C(=O)NCC(F)(F)C(F)(F)F)C(=O)N[C@@H]1C(=O)Nc2ccccc2-c2ccccc21 .
inactive

If you can, please state the reported Potency value of Nc1ccc(F)cc1NC(=O)c1ccc(CNC(=O)/C=C/c2cccnc2)cc1 .
4.17 µM (active)

If you can, please state the reported Potency value of Cc1cc(-c2cnn3c(NCC4CC(C)(O)C4)cc(Oc4cccnc4)nc23)ccc1C(=O)NC1CC1 (configuration not stated) .
0.934 µM (active)

If you can, please state the reported Potency value of Cc1nnn(C)c1-c1cnc2c3ccc(C(C)(C)O)cc3n([C@H](c3ccccc3)C3CCOCC3)c2c1 .
0.0295 µM (active)

If you can, please state the reported Potency value of O=C(O)c1cccnc1 .
inactive

If you can, please state the reported Potency value of CC(C)C[C@@H]1NC(=O)[C@@H](C(C)C)NC(=O)[C@@H]2CCCN2C(=O)[C@@H](CC(=O)O)NC(=O)[C@@H](Cc2c[nH]c3ccccc23)NC1=O (cyclo(L[dW][dD]P[dV])) .
inactive

If you can, please state the reported Potency value of Cn1cc(-c2cnc3ccc4ccc(CS(=O)(=O)NCc5ccccn5)cc4c(=O)c3c2)cn1 .
23.5 µM (active)

If you can, please state the reported Potency value of Cc1nc(NC(=O)N2CCC[C@H]2C(N)=O)sc1-c1csc(C(C)(C)C)n1 .
inactive

If you can, please state the reported Potency value of C[C@@H]1COCCN1c1cc(C2(S(C)(=N)=O)CC2)nc(-c2ccnc3[nH]ccc23)n1 (some centres not stated) .
4.68 µM (active)
